Test system: Winter Wheat “Hereward”
Experiment: Biological Example 4B post-emergence phytotoxicity on cereal crops
Type: in vivo
Conditions: 60 g/ha, cloquintocet-mexyl 50 g/ha, 14 DAA, technical compound in IF50 + Adigor, mean of two
quantity-name: Winter Wheat “Hereward” phytotoxicity (%)
The figure you give is taken to be in %; do not add the unit.

Consider CC#Cc1cc(C)c(C2C(=O)CC(Cc3ccn(C)n3)C2=O)c(C)c1 (centres unmarked) [Compound A-19] . Its measured Winter Wheat “Hereward” phytotoxicity (%) is 75

Consider CC#Cc1cc(C)c(C2=C(O)CC(Cc3ccc(F)cn3)C2=O)c(C)c1 (centres unmarked) [Compound A-11] . Its measured Winter Wheat “Hereward” phytotoxicity (%) is 8

Consider CC#Cc1cc(C)c(C2C(=O)CC(Cc3ccccn3)C2=O)c(CC)c1 (centres unmarked) [Compound A-26] . Its measured Winter Wheat “Hereward” phytotoxicity (%) is 98

Consider CC#Cc1cc(C)c(C2=C(O)CC(Cc3ccc(C#N)cn3)C2=O)c(C)c1 (centres unmarked) [Compound A-14] . Its measured Winter Wheat “Hereward” phytotoxicity (%) is 78

Consider CC#Cc1cc(C)c(C2=C(O)CC(Cc3ccc(C)cn3)C2=O)c(C)c1 (centres unmarked) [Compound A-8] . Its measured Winter Wheat “Hereward” phytotoxicity (%) is 45

----------
Tested on: Solanum nigrum (SOLNI)
Assay: Biological Example 1 glasshouse screen, post-emergence herbicidal activity
Type: in vivo
Conditions: application rate 250 g/ha, evaluated after 13 days
quantity-name: SOLNI percentage phytotoxicity (%)
The figure you give is taken to be in %; do not add the unit.

Consider Cc1cc(C#CCl)cc(C)c1C1C(=O)CCC1=O . Its measured SOLNI percentage phytotoxicity is 20

Consider CC#Cc1cc(C)c(C2C(=O)C3C(C2=O)[C@H]2CC[C@@H]3O2)c(C)c1 (mixture of isomers) . Its measured SOLNI percentage phytotoxicity is 80

Consider CC#Cc1cc(C)c(C2=C(O)CCC2=O)c(C)c1 . Its measured SOLNI percentage phytotoxicity is 10

Consider Cc1cc(C#CCl)cc(C)c1C1=C(O)CC(Cc2ccccn2)C1=O (racemic) . Its measured SOLNI percentage phytotoxicity is 70

Consider Cc1cc(C#CCl)cc(C)c1C1C(=O)C2C(C1=O)[C@H]1CC[C@@H]2O1 (some centres unmarked) . Its measured SOLNI percentage phytotoxicity is 70

----------
System: Alopecurus myosuroides, blackgrass (ALOMY)
Test: Biological Example 3 glasshouse screen, post-emergence herbicidal activity
Format: in vivo
Conditions: 360 h, application rate 30 g/ha, 15 DAA, no safener, read-out: ALOMY percentage phytotoxicity
quantity-name: pest or weed control at 30 g/ha (%)
The figure you give is taken to be in %; do not add the unit.

Consider CC#Cc1cc(C)c(C2=C(O)CC(Cc3ccc(F)cn3)C2=O)c(C)c1 (stereo not shown) [Compound A-11] . Its measured pest or weed control at 30 g/ha is 90

Consider CC#Cc1cc(C)c(C2=C(O)CC(CC3CCOCC3)C2=O)c(C)c1 (stereo not shown) [Compound A-4] . Its measured pest or weed control at 30 g/ha is 100

Consider Cc1cc(-c2ccc(F)cc2)cc(C)c1C1C(=O)CC(Cc2ccc(C#N)cn2)C1=O (stereo not shown) [reference compound] . Its measured pest or weed control at 30 g/ha is 70

Consider CC#Cc1cc(C)c(C2=C(O)CC(Cc3cccc(C)n3)C2=O)c(C)c1 (stereo not shown) [Compound A-9] . Its measured pest or weed control at 30 g/ha is 70

----------
System: Avena fatua (AVEFA)
Test: Biological Example 2 post-emergence herbicidal activity (comparative data)
Type: in vivo
Details: 62.5 g/ha application rate
quantity-name: AVEFA percentage phytotoxicity (%)
The figure you give is taken to be in %; do not add the unit.

Consider C#Cc1cc(C)c(C2=C(O)CC(Cc3ccccn3)C2=O)c(C)c1 (stereo not shown) [X-1, reference compound] . Its measured AVEFA percentage phytotoxicity is 90

Consider CC#Cc1cc(C)c(C2=C(O)CC(CC3CCOCC3)C2=O)c(C)c1 (stereo not shown) . Its measured AVEFA percentage phytotoxicity is 100

Consider CC#Cc1cc(C)c(C2=C(O)CC(Cc3ccccn3)C2=O)c(C)c1 (racemic) . Its measured AVEFA percentage phytotoxicity is 90

Consider C#Cc1cc(C)c(C2=C(O)CC(CC3CCOCC3)C2=O)c(C)c1 (stereo not shown) [X-2, reference compound] . Its measured AVEFA percentage phytotoxicity is 90

----------
Test system: Spring Barley “Harrington”
Test: Biological Example 4B post-emergence phytotoxicity on cereal crops
Format: in vivo
Conditions: 60 g/ha, cloquintocet-mexyl 0 g/ha, 14 DAA, technical compound in IF50 + Adigor, mean of two
quantity-name: Spring Barley “Harrington” phytotoxicity (%)
The figure you give is taken to be in %; do not add the unit.

Consider CC#Cc1cc(C)c(C2C(=O)CC(Cc3ccccn3)C2=O)c(CC)c1 (centres unmarked) . Its measured Spring Barley “Harrington” phytotoxicity (%) is 100

Consider CC#Cc1cc(C)c(C2=C(O)CC(Cc3ccc(F)cn3)C2=O)c(C)c1 (centres unmarked) . Its measured Spring Barley “Harrington” phytotoxicity (%) is 58

Consider CC#Cc1cc(C)c(C2=C(O)CC(Cc3ccc(C#N)cn3)C2=O)c(C)c1 (centres unmarked) . Its measured Spring Barley “Harrington” phytotoxicity (%) is 95

Consider CC#Cc1cc(C)c(C2=C(O)CC(Cc3ccc(C)cn3)C2=O)c(C)c1 (centres unmarked) . Its measured Spring Barley “Harrington” phytotoxicity (%) is 85

Consider CC#Cc1cc(C)c(C2C(=O)CC(Cc3ccn(C)n3)C2=O)c(C)c1 (centres unmarked) . Its measured Spring Barley “Harrington” phytotoxicity (%) is 98

----------
Test system: Spring Wheat “Teal”
Test: Biological Example 4B post-emergence phytotoxicity on cereal crops
Format: in vivo
Settings: 60 g/ha, cloquintocet-mexyl 50 g/ha, 14 DAA, technical compound in IF50 + Adigor, mean of two
Output Yes for Spring Wheat “Teal” phytotoxicity (%) not less than 60%; output No otherwise.

# input Answer whether Spring Wheat “Teal” phytotoxicity (%) of CC#Cc1cc(C)c(C2=C(O)CC(Cc3ccc(C)cn3)C2=O)c(C)c1 (centres unmarked) is greater than or equal to 60%.
# output No

# input Answer whether Spring Wheat “Teal” phytotoxicity (%) of CC#Cc1cc(C)c(C2C(=O)CC(Cc3ccccn3)C2=O)c(CC)c1 (centres unmarked) is greater than or equal to 60%.
# output Yes

# input Answer whether Spring Wheat “Teal” phytotoxicity (%) of CC#Cc1cc(C)c(C2=C(O)CC(Cc3ccc(F)cn3)C2=O)c(C)c1 (centres unmarked) is greater than or equal to 60%.
# output No

# input Answer whether Spring Wheat “Teal” phytotoxicity (%) of CC#Cc1cc(C)c(C2C(=O)CC(Cc3ccn(C)n3)C2=O)c(C)c1 (centres unmarked) is greater than or equal to 60%.
# output Yes

# input Answer whether Spring Wheat “Teal” phytotoxicity (%) of CC#Cc1cc(C)c(C2=C(O)CC(Cc3ccc(C#N)cn3)C2=O)c(C)c1 (centres unmarked) is greater than or equal to 60%.
# output Yes

----------
Tested on: Alopecurus myosuroides, blackgrass (ALOMY)
Assay: Biological Example 3 glasshouse screen, post-emergence herbicidal activity
Assay type: in vivo
Settings: 360 h, application rate 60 g/ha, 15 DAA, no safener, read-out: ALOMY percentage phytotoxicity
Please go through the items and note down their pest or weed control at 60 g/ha.
The figure you give is taken to be in %; do not add the unit.

Consider CC#Cc1cc(C)c(C2=C(O)CC(Cc3cccc(C)n3)C2=O)c(C)c1 (stereo not drawn) [Compound A-9] . Its measured pest or weed control at 60 g/ha is 80

Consider CC#Cc1cc(C)c(C2=C(O)CC(Cc3cccc(F)n3)C2=O)c(C)c1 (stereo not drawn) [Compound A-7] . Its measured pest or weed control at 60 g/ha is 80

Consider CC#Cc1cc(C)c(C2=C(O)CC(Cc3cccnc3)C2=O)c(C)c1 (stereo not drawn) [Compound A-10] . Its measured pest or weed control at 60 g/ha is 80

Consider CC#Cc1cc(C)c(C2=C(O)CC(Cc3cccnc3C#CC)C2=O)c(C)c1 (stereo not drawn) [Compound A-15] . Its measured pest or weed control at 60 g/ha is 50

Consider CC#Cc1cc(C)c(C2=C(O)CC(Cc3ccc(C#N)cn3)C2=O)c(C)c1 (stereo not drawn) [Compound A-14] . Its measured pest or weed control at 60 g/ha is 90

Consider CC#Cc1cc(C)c(C2=C(O)CC(Cc3ccc(F)cn3)C2=O)c(C)c1 (stereo not drawn) [Compound A-11] . Its measured pest or weed control at 60 g/ha is 100

----------
System: Alopecurus myosuroides (ALOMY)
Assay: Biological Example 1 glasshouse screen, pre-emergence herbicidal activity
Format: in vivo
Settings: 312 h, application rate 250 g/ha, evaluated after 13 days, read-out: ALOMY percentage phytotoxicity
quantity-name: pest or weed control at 250 g/ha (%)
The figure you give is taken to be in %; do not add the unit.

Consider CC#Cc1cc(C)c(C2C(=O)CC(Cc3ccn[nH]3)C2=O)c(C)c1 (centres unmarked) . Its measured pest or weed control at 250 g/ha is 100

Consider CC#Cc1cc(C)c(C2=C(O)CC(Cc3ccc(C#N)cn3)C2=O)c(C)c1 (centres unmarked) . Its measured pest or weed control at 250 g/ha is 90

Consider CC#Cc1cc(C)c(C2=C(O)CC(CC3CCOCC3)C2=O)c(C)c1 (centres unmarked) . Its measured pest or weed control at 250 g/ha is 100

Consider CC#Cc1cc(C)c(C2=C(O)CC(Cc3cccc(C#N)n3)C2=O)c(C)c1 (centres unmarked) . Its measured pest or weed control at 250 g/ha is 90

Consider CC#Cc1cc(C)c(C2=C(O)CC(Cc3cccnc3C#CC)C2=O)c(C)c1 (centres unmarked) . Its measured pest or weed control at 250 g/ha is 90

Consider Cc1cc(C#CCl)cc(C)c1C1=C(O)CC(Cc2ccccn2)C1=O (racemic) . Its measured pest or weed control at 250 g/ha is 90

Consider CC#Cc1cc(C)c(C2=C(O)CC(Cc3ccc(F)cn3)C2=O)c(C)c1 (centres unmarked) . Its measured pest or weed control at 250 g/ha is 90

Consider CC#Cc1cc(C)c(C2C(=O)CC(Cc3ccn(C)n3)C2=O)c(C)c1 (centres unmarked) . Its measured pest or weed control at 250 g/ha is 100

Consider Cc1cc(C#CCl)cc(C)c1C1C(=O)CCC1=O . Its measured pest or weed control at 250 g/ha is 50

Consider CC#Cc1cc(C)c(C2=C(O)CC(Cc3ccc(C(C)=O)cn3)C2=O)c(C)c1 (centres unmarked) . Its measured pest or weed control at 250 g/ha is 80

Consider CC#CCC1CC(=O)C(c2c(C)cc(C#CC)cc2C)C1=O (centres unmarked) . Its measured pest or weed control at 250 g/ha is 100

Consider C#CCC1CC(=O)C(c2c(C)cc(C#CCl)cc2C)C1=O (centres unmarked) . Its measured pest or weed control at 250 g/ha is 90

Consider CC#Cc1cc(C)c(C2C(=O)CC(Cc3ccc(C#N)c(NC)n3)C2=O)c(C)c1 (centres unmarked) . Its measured pest or weed control at 250 g/ha is 80

Consider C#CCC1CC(=O)C(c2c(C)cc(C#CC)cc2C)C1=O (centres unmarked) . Its measured pest or weed control at 250 g/ha is 100

Consider CC#Cc1cc(C)c(C2C(=O)CC(CC#CCl)C2=O)c(C)c1 (centres unmarked) . Its measured pest or weed control at 250 g/ha is 90

Consider CC#Cc1cc(C)c(C2C(=O)C3C(C2=O)[C@H]2CC[C@@H]3O2)c(C)c1 (mixture of isomers) . Its measured pest or weed control at 250 g/ha is 100

Consider CC#Cc1cc(C)c(C2=C(O)CC(Cc3cccnc3)C2=O)c(C)c1 (centres unmarked) . Its measured pest or weed control at 250 g/ha is 80
